Biological target: UniProt:P28845
Sequence (P28845 whole entry): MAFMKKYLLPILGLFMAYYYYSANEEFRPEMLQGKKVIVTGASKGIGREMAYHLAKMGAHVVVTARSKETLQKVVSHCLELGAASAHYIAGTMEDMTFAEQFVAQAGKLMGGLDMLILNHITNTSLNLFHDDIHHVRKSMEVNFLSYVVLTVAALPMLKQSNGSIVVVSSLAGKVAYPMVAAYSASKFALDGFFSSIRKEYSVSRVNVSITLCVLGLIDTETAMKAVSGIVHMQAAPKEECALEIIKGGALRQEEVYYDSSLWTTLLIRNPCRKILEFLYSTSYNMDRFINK
Assay: Inhibition constant Ki of human 11b-hsd-1 (3H-cortisone to 3H-cortisol conversion, HPLC)
Format: biochemical
Conditions: compound at 0.1 μM
observedProperty: inhibition at 0.1 µM (%)

The examples below pair each entry with its known result.
molecule | displayUnit | val
Cc1ncccc1CNC(=O)[C@H]1CCCN1CC(C)C | % | 100
CCCN1CCC[C@@H]1C(=O)NC12CC3CC(CC(C3)C1)C2 | % | 100
CC1(C)CC(NC(=O)C2COCCN2Cc2ccccc2)CC(C)(C)C1 (stereo not drawn) | % | 100

(P) CN1CCC[C@@H]1C(=O)NC12CC3CC(CC(C3)C1)C2
(Q) O=C(NCc1ccccc1)[C@@H]1CCCN1CC1CCCCC1
Qu. Name the one with the greater inhibition at 0.1 µM value, either P or Q as given. Lab log: write the label of the selected item as the result.
Ans. P
(P: 72%, Q: 29%)
